Target Desc: Mpro of SARS-CoV-1 (Severe acute respiratory syndrome coronavirus, UniProt P0C6X7)
Experimental Endpoint: pIC50
Scale explanation: pIC50 corresponds to minus log10 of a concentration expressed in moles per litre.

Mpro of SARS-CoV-1 (Severe acute respiratory syndrome coronavirus, UniProt P0C6X7) data for O=C(NC1CCCC1)C(=O)[C@H](C[C@@H]1CCNC1=O)NC(=O)[C@@H]1[C@H]2CCC[C@H]2CN1C(=O)[C@@H](NC(=O)C(F)(F)F)C1CCCCC1 ; its pIC50: 7.14

----------
Target Desc: Mpro of OC43 (Human coronavirus OC43)
Sequence (P0C6X6 3247-3549): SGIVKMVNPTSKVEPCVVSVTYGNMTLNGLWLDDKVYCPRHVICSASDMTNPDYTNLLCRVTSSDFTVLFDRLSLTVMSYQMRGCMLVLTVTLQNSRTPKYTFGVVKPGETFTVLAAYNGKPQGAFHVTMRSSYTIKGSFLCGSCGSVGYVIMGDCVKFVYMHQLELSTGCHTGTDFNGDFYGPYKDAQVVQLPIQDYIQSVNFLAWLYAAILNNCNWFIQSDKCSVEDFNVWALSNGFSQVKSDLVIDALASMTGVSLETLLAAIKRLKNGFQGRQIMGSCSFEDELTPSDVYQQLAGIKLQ
Experimental Endpoint: pIC50
Worth noting: pIC50 values are minus log10 of concentrations stated in mol/L.

// assay Mpro of OC43 (Human coronavirus OC43), entry O=C(NC1CCCC1)C(=O)[C@H](C[C@@H]1CCNC1=O)NC(=O)[C@@H]1[C@H]2CCC[C@H]2CN1C(=O)[C@@H](NC(=O)C(F)(F)F)C1CCCCC1 [Leritrelvir, leritrelvir] , pIC50 value = 7.27
